system: tetA promoter (PtetA)-lacZ reporter in E. coli KM3; assay type: cell-based; conditions: Table 6, reverse repressor hits; thifensulfuron, same plate assay format as Table 4
Metric: relative β-galactosidase activity, inducer Ts

In plain terms, L1-21: library L1 reverse repressor hit (SEQ ID NO: 1206-1213) (protein, rSuR L1-21) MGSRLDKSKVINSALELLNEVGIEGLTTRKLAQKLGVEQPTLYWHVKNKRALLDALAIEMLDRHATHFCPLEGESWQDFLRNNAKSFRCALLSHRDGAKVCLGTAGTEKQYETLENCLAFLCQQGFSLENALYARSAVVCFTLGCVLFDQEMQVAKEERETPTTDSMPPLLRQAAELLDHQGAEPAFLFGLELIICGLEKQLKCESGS has a documented relative β-galactosidase activity, inducer Ts of 0.79

From: patent US8580556B2
